# protocol description: Single-dose pharmacokinetics in monkeys (p.o. and i.v.)
# Type: in vivo, monkey
# condition summary: monkey, plasma, intravenous, 0.5 mg/kg, monkey, 0,5 mg/kg i.v., 1 h, single animals; read-out: plasma conc
parameter measured: concentration at 1 h (ng/mL)
All answers are understood in ng/mL, so give the number only.

Q) Name the recorded concentration at 1 h of the compound listed here: CC#C[C@@H](CC(=O)O)c1ccc(OCC(C)=C(C)C)cc1
A) 198

---

Recorded microsomal CLint at 3 μM, one value per entry.
# protocol description: Stability in microsomes, rat
# Format: in vitro ADME
# condition summary: Rat (Sprague Dawley) microsomes, mean n = 2
Unit µL/min/mg implied. Number only.

CC#C[C@@H](CC(=O)O)c1ccc(OCC(C)=C(C)C)cc1 : 21.1

Next compound, microsomal CLint at 3 μM to be filled in.
Q) Answer with the recorded microsomal CLint at 3 μM for the compound listed here: Cc1cc(OCCCS(C)(=O)=O)cc(C)c1-c1cccc(COc2ccc3c(c2)OC[C@H]3CC(=O)O)c1 [TAK-875, fasiglifam, reference compound]
A) 11.6
